Target: T1, recombinant rat MASP1 active protease (amino acids 302-704, C-terminal His Tag) (rat, UniProt Q8CHN8 302-704)
T1 sequence: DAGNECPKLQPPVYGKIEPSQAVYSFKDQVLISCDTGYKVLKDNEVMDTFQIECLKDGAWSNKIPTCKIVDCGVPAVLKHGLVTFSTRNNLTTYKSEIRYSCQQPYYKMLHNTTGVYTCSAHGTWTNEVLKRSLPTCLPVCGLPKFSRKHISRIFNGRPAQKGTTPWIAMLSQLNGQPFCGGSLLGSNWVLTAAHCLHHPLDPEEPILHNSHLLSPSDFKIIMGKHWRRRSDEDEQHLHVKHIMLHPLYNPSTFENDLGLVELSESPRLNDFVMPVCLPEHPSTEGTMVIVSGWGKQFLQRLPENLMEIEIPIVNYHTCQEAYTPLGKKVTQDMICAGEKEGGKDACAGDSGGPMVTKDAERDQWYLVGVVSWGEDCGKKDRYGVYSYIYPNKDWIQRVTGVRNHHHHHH
Assay: cell-based or functional assay
Numbered stars: 1 amine (or outer) side, 2 acyl side, 3 side chain; on linkers, the order of the positions; unused ones are H or OH. Bridge positions count the residues as written; N and C are the ends. Square brackets hold non-standard residues; d marks the D form. Ends that are not written are not given here. βDap = *Dap: Dap linked through its additional amino group, O=C([C@H](CN[*:1])N[*:3])[*:2]; Oic = O=C(O)[C@@H]1C[C@@H]2CCCC[C@@H]2N1; Pen = CC(C)(S)[C@H](N)C(=O)O; Sar = CNCC(=O)O
Label fulfilled when rat MASP1 IC50 is strictly below 80 nM; at or above that, label not fulfilled.

Previously resolved entries follow.
[Sar]ICSRSLP[Oic]I[Pen]IP[(2S)‑3‑(Triazol-1-yl)‑2‑(amino)propanoic acid]-NH2 (disulfide 3-11) [Example 437: ((N-Me)G)-IC+SRSLP-(Oic)-I-(Pen)+IP-((2S)-3-(Triazol-1-yl)-2-(amino)propanoic acid)-NH2] :: fulfilled
GICSRSLP[Oic]ICIPD-OH (disulfide 3-11; N-terminus assumed; SMILES CC[C@H](C)[C@H](NC(=O)CN)C(=O)N[C@H]1CSSC[C@@H](C(=O)N[C@H](C(=O)N2CCC[C@H]2C(=O)N[C@@H](CC(=O)O)C(=O)O)[C@@H](C)CC)NC(=O)[C@H]([C@@H](C)CC)NC(=O)[C@@H]2C[C@@H]3CCCC[C@@H]3N2C(=O)[C@@H]2CCCN2C(=O)[C@H](CC(C)C)NC(=O)[C@H](CO)NC(=O)[C@H](CCCNC(=N)N)NC(=O)[C@H](CO)NC1=O) [Example 323: GIC+SRSLP-(Oic)-IC+IPD-OH] :: fulfilled
ICSRSLP[Oic]I[Pen]IPD-OH (disulfide 2-10; N-terminus assumed; SMILES CC[C@H](C)[C@H](N)C(=O)N[C@H]1CSSC(C)(C)[C@@H](C(=O)N[C@H](C(=O)N2CCC[C@H]2C(=O)N[C@@H](CC(=O)O)C(=O)O)[C@@H](C)CC)NC(=O)[C@H]([C@@H](C)CC)NC(=O)[C@@H]2C[C@@H]3CCCC[C@@H]3N2C(=O)[C@@H]2CCCN2C(=O)[C@H](CC(C)C)NC(=O)[C@H](CO)NC(=O)[C@H](CCCNC(=N)N)NC(=O)[C@H](CO)NC1=O) [Example 347: IC+SRSLP-(Oic)-I-(Pen)+IPD-OH] :: not fulfilled
AICSRSLP[Oic]I[Pen]IP[βDap]-OH (disulfide 3-11; also: Dap at position 14 joined through its 3-amino group) [Example 458: AIC+SRSLP-(Oic)-I-(Pen)+IP-(*Dap)-OH] :: not fulfilled

--- query ---
// query Hello, I'm reviewing records and need to know if rat MASP1 IC50 of [Sar]ICSRSLP[Oic]I[Pen]IPN-OH (disulfide 3-11; N-terminus assumed; SMILES CC[C@H](C)[C@H](NC(=O)CNC)C(=O)N[C@H]1CSSC(C)(C)[C@@H](C(=O)N[C@H](C(=O)N2CCC[C@H]2C(=O)N[C@@H](CC(N)=O)C(=O)O)[C@@H](C)CC)NC(=O)[C@H]([C@@H](C)CC)NC(=O)[C@@H]2C[C@@H]3CCCC[C@@H]3N2C(=O)[C@@H]2CCCN2C(=O)[C@H](CC(C)C)NC(=O)[C@H](CO)NC(=O)[C@H](CCCNC(=N)N)NC(=O)[C@H](CO)NC1=O) [Example 454: ((N-Me)G)-IC+SRSLP-(Oic)-I-(Pen)+IPN-OH] is below 80 nM. Could you check?
// result not fulfilled
